System: ABL1 (human), P00519 [E255K]
Sequence (P00519 whole entry E255K, looked up): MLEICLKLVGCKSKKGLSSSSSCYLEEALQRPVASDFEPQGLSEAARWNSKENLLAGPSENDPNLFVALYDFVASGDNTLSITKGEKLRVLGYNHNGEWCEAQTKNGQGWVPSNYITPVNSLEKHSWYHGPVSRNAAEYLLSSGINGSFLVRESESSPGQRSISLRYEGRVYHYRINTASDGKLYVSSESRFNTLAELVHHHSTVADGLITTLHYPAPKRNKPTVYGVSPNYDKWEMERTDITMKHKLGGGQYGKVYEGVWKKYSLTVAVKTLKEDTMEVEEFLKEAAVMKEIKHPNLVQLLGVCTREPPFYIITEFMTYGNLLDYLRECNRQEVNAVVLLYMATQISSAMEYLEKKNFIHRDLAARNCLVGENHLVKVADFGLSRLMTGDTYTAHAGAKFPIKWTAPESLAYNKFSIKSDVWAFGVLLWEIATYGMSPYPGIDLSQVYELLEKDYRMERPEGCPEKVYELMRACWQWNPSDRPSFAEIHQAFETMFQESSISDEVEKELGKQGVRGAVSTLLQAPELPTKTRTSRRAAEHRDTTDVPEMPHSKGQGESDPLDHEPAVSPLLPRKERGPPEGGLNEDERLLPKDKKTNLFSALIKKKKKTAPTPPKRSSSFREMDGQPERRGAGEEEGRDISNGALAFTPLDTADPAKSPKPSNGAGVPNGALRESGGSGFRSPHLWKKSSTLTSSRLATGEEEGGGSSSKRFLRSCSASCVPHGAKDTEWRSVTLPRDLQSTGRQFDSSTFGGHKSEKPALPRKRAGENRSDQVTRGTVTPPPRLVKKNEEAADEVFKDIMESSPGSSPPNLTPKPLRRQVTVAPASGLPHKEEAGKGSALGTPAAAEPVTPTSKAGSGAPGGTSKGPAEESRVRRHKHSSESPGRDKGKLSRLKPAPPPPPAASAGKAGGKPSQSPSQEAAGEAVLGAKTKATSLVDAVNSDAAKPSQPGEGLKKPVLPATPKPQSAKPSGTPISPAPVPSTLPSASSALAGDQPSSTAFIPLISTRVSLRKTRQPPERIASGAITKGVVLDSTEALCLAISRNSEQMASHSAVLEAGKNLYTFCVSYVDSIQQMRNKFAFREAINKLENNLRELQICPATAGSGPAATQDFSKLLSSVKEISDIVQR
Assay: KINOMEscan competition binding
Details: compound 10.0 µM
test readout: kinase still bound, per cent of control (%)
Field format: number, assumed %, no unit text.

COc1cc2ncnc(-n3nc(-c4ccccn4)nc3N)c2cc1OC	0.4

Lab note: measured kinase still bound, per cent of control of CCN1CCN(Cc2ccc(Nc3ncc4c(n3)N(C)c3ccccc3C(=O)N4C)cc2C(F)(F)F)CC1 was 0.1

Lab note: measured kinase still bound, per cent of control of Cc1n[nH]c2ccc(-c3cncc(OC[C@@H](N)Cc4c[nH]c5ccccc45)c3)cc12 was 100

Lab note: measured kinase still bound, per cent of control of CC[C@@H]1C(=O)N(C)c2cnc(Nc3ccc(C(=O)NC4CCN(C)CC4)cc3OC)nc2N1C1CCCC1 was 100

Lab note: measured kinase still bound, per cent of control of Cc1ccc(C(=O)Nc2cccc(C(F)(F)F)c2)cc1Nc1cncc(C(N)=O)c1 was 100

Lab note: measured kinase still bound, per cent of control of CNC(=O)Nc1ccc(-c2nc(N3CC4CCC(C3)O4)c3cnn(C4CCC5(CC4)OCCO5)c3n2)cc1 was 100

Lab note: measured kinase still bound, per cent of control of COc1ccc(N(C(=O)Oc2cc(C(=O)Nc3cccc(C(F)(F)F)c3)ccc2C)c2ccnc(Nc3ccc(N4CCN(C)CC4)cc3)n2)c(OC)c1 was 7.2

Lab note: measured kinase still bound, per cent of control of CCN(CC)CCCCNc1ncc2c(n1)N(C)C(=O)N(c1c(Cl)c(OC)cc(OC)c1Cl)C2 was 100
